Reported values of Ratio IC50 for individual entries
Assay: Selectivity index, ratio of IC50 for electric eel AChE to IC50 for equine serum BuChE
# print the numeric value only

Reference set, count: 3
{"Compound": "O=C1C(Cc2ccccc2)N(S(=O)(=O)c2cccc(O)c2)C(=O)C(Cc2ccccc2)N1S(=O)(=O)c1cccc(O)c1 (centres undefined)", "Ratio IC50": 0.3}
{"Compound": "O=C1C(c2ccccc2)N(S(=O)(=O)c2cccc(Br)c2)C(=O)C(c2ccccc2)N1S(=O)(=O)c1cccc(Br)c1 (centres undefined)", "Ratio IC50": 0.4}
{"Compound": "O=C1CN(S(=O)(=O)c2ccc(Br)cc2)C(=O)CN1S(=O)(=O)c1ccc(Br)cc1", "Ratio IC50": 0.4}

// moving on: another record for Ratio IC50
Recorded result, O=C1C(c2ccccc2)N(S(=O)(=O)c2ccc([N+](=O)[O-])cc2)C(=O)C(c2ccccc2)N1S(=O)(=O)c1ccc([N+](=O)[O-])cc1 (centres undefined) , Ratio IC50: 0.3
